test system: Trypanosoma brucei brucei; test: Antitrypanosomal activity against Trypanosoma brucei brucei S427 by resazurin dye based fluorescence assay; type: functional
Property: GI50; scope: individual molecules
Give the value in µM but do not write µM after it.

smiles code	GI50 [µM]
CC[C@@H](C(=O)[C@@H](C)[C@@H](O)[C@H](C)[C@@H]1O[C@@H]([C@@H](CC)C(=O)O)CC[C@@H]1C)[C@H]1O[C@]2(C=C[C@H](O)[C@]3(CC[C@@](C)([C@H]4CC[C@](O)(CC)[C@H](C)O4)O3)O2)[C@H](C)C[C@@H]1C	8.49
C#CCOC(=O)[C@H](CC)[C@H]1CC[C@H](C)[C@H]([C@@H](C)[C@H](O)[C@H](C)C(=O)[C@H](CC)[C@H]2O[C@]3(C=C[C@H](OC(C)=O)[C@]4(CC[C@@](C)([C@H]5CC[C@](O)(CC)[C@H](C)O5)O4)O3)[C@H](C)C[C@@H]2C)O1	22.4
CC[C@@H](C(=O)[C@@H](C)[C@@H](O)[C@H](C)[C@@H]1O[C@@H]([C@@H](CC)C(=O)O)CC[C@@H]1C)[C@H]1O[C@]2(C=C[C@H](OC(=O)c3ccccc3)[C@]3(CC[C@@](C)([C@H]4CC[C@](O)(CC)[C@H](C)O4)O3)O2)[C@H](C)C[C@@H]1C	0.34

Switching to the query record.
Req: Field request: GI50 | item: `C#CCNC(=O)[C@H](CC)[C@H]1CC[C@H](C)[C@H]([C@@H](C)[C@H](O)[C@H](C)C(=O)[C@H](CC)[C@H]2O[C@]3(C=C[C@H](OC(=O)OCC)[C@]4(CC[C@@](C)([C@H]5CC[C@](O)(CC)[C@H](C)O5)O4)O3)[C@H](C)C[C@@H]2C)O1`
Resp: 13.8
